# Target entity: Protein smoothened (Homo sapiens)
# Sequence (Q99835 whole entry): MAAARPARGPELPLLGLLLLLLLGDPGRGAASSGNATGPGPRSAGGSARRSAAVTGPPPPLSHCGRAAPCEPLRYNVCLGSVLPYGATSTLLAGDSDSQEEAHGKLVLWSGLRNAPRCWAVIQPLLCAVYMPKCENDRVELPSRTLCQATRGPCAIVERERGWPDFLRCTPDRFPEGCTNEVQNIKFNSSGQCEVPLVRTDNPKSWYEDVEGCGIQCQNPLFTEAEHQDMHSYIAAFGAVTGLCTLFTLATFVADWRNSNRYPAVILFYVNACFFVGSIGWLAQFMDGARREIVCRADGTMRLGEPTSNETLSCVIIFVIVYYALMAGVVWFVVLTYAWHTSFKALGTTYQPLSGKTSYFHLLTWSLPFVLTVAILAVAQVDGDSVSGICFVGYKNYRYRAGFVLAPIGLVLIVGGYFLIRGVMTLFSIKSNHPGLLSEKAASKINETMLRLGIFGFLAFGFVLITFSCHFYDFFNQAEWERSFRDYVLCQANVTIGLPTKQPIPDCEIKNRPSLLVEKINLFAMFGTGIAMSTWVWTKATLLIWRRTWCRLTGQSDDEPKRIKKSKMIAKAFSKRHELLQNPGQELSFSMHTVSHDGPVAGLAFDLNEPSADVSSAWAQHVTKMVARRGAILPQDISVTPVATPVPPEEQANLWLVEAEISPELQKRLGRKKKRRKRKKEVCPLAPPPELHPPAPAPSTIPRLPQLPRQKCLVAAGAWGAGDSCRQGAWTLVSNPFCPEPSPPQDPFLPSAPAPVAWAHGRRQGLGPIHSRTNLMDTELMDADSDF
# Assay name: Antagonist activity at smoothened (unknown origin) expressed in mouse Shh Light2 cells co-expressing Gli-dependent reporter gene assessed as inhibition of Shh signaling at 2 uM by dual luciferase reporter gene assay
# Format: functional, cell-based
# Condition set: Shh Light II
Readings of inhibition for the listed compounds

{"columns": ["Structure as smiles", "inhibition, %"],
 "data": [
  ["Cc1ccc(NC(=O)c2cc(NC(=O)c3ccc(S(C)(=O)=O)cc3Cl)ccc2Cl)cc1", 67.5],
  ["CS(=O)(=O)c1ccc(C(=O)Nc2ccc(Cl)c(NC(=O)c3ccccn3)c2)c(Cl)c1", 53.2],
  ["CCc1ccccc1NC(=O)c1cc(NC(=O)c2ccc(S(C)(=O)=O)cc2Cl)ccc1Cl", 65.9],
  ["CCOc1ccc(NC(=O)Nc2cc(NC(=O)c3ccc(S(C)(=O)=O)cc3Cl)ccc2Cl)cc1", 66.1],
  ["CS(=O)(=O)c1ccc(C(=O)Nc2ccc(Cl)c(NC(=O)c3cccc(C(F)(F)F)c3)c2)c(Cl)c1", 28.4]
]}

----------
# Target entity: UniProt Q99835
# Assay name: Antagonist activity at smoothened (unknown origin) expressed in mouse Shh Light2 cells co-expressing Gli-dependent reporter gene assessed as inhibition of Hh signaling by dual luciferase reporter gene assay
pIC50: −log10 of the molar value.

{"columns": ["Structure as smiles", "Target entity", "pIC50"],
 "data": [
  ["Cc1cccc(NC(=O)c2cc(NC(=O)c3ccc(S(C)(=O)=O)cc3Cl)ccc2Cl)c1C", "UniProt Q99835", 7.00],
  ["CS(=O)(=O)c1ccc(C(=O)Nc2ccc(Cl)c(NC(=O)Nc3ccc(C(F)(F)F)cc3Cl)c2)c(Cl)c1", "UniProt Q99835", 6.52],
  ["CS(=O)(=O)c1ccc(C(=O)Nc2ccc(Cl)c(C(=O)Nc3cccc(O)c3)c2)c(Cl)c1", "UniProt Q99835", 7.40]
]}

----------
# Target entity: Protein smoothened (Homo sapiens)
# Assay name: Antagonist activity at smoothened (unknown origin) expressed in mouse Shh Light2 cells co-expressing Gli-dependent reporter gene assessed as inhibition of Shh signaling at 2 uM by dual luciferase reporter gene assay
# Type: functional, cell-based
# Condition set: Shh Light II
Just so you know, the groups by inhibition go like this: bottom = under 50%, middle = from 50% up to 70%, top = 70% and over

{"columns": ["Structure as smiles", "Target entity", "Group"],
 "data": [
  ["CS(=O)(=O)c1ccc(C(=O)Nc2ccc(Cl)c(NC(=O)Nc3ccc(Br)cc3F)c2)c(Cl)c1", "Protein smoothened (Homo sapiens)", "middle"],
  ["CS(=O)(=O)c1ccc(C(=O)Nc2ccc(Cl)c(NC(=O)Nc3ccc(Cl)cc3)c2)c(Cl)c1", "Protein smoothened (Homo sapiens)", "bottom"],
  ["COc1cc(OC)cc(C(=O)Nc2cc(NC(=O)c3ccc(S(C)(=O)=O)cc3Cl)ccc2Cl)c1", "Protein smoothened (Homo sapiens)", "bottom"],
  ["CS(=O)(=O)c1ccc(C(=O)Nc2ccc(Cl)c(C(=O)Nc3cccnc3)c2)c(Cl)c1", "Protein smoothened (Homo sapiens)", "top"],
  ["Cc1ccccc1NC(=O)c1cc(NC(=O)c2ccc(S(C)(=O)=O)cc2Cl)ccc1Cl", "Protein smoothened (Homo sapiens)", "top"],
  ["COc1ccc(NC(=O)Nc2cc(NC(=O)c3ccc(S(C)(=O)=O)cc3Cl)ccc2Cl)cc1", "Protein smoothened (Homo sapiens)", "top"],
  ["CS(=O)(=O)c1ccc(C(=O)Nc2ccc(Cl)c(C(=O)Nc3ccc(Cl)cc3Cl)c2)c(Cl)c1", "Protein smoothened (Homo sapiens)", "bottom"],
  ["CS(=O)(=O)c1ccc(C(=O)Nc2ccc(Cl)c(C(=O)Nc3cc(Cl)cc(Cl)c3)c2)c(Cl)c1", "Protein smoothened (Homo sapiens)", "bottom"],
  ["CS(=O)(=O)c1ccc(C(=O)Nc2ccc(Cl)c(C(=O)Nc3cccc(O)c3)c2)c(Cl)c1", "Protein smoothened (Homo sapiens)", "top"],
  ["CS(=O)(=O)c1ccc(C(=O)Nc2ccc(Cl)c(NC(=O)c3ccc(Cl)cn3)c2)c(Cl)c1", "Protein smoothened (Homo sapiens)", "bottom"],
  ["Cc1cc(C)cc(NC(=O)c2cc(NC(=O)c3ccc(S(C)(=O)=O)cc3Cl)ccc2Cl)c1", "Protein smoothened (Homo sapiens)", "middle"],
  ["Cc1cccc(NC(=O)c2cc(NC(=O)c3ccc(S(C)(=O)=O)cc3Cl)ccc2Cl)c1C", "Protein smoothened (Homo sapiens)", "top"]
]}

----------
# Target entity: UniProt:Q99835
# Assay name: Antagonist activity at smoothened (unknown origin) expressed in mouse Shh Light2 cells co-expressing Gli-dependent reporter gene assessed as inhibition of Shh signaling at 2 uM by dual luciferase reporter gene assay
# Type: functional, cell-based
# Condition set: Shh Light II

{"columns": ["Structure as smiles", "inhibition [%]"],
 "data": [
  ["COc1ccc(NC(=O)c2cc(NC(=O)c3ccc(S(C)(=O)=O)cc3Cl)ccc2Cl)cc1", 69.8],
  ["CCOc1ccc(NC(=O)c2cc(NC(=O)c3ccc(S(C)(=O)=O)cc3Cl)ccc2Cl)cc1", 70.4],
  ["CS(=O)(=O)c1ccc(C(=O)Nc2ccc(Cl)c(NC(=O)c3ccc(Cl)s3)c2)c(Cl)c1", 51.4]
]}
